Biological target: T1, FcγRIIa (R167) (biotinylated, Acro Biosystems) (UniProt P12318 36-218, biotinylated)
T1 sequence (looked up): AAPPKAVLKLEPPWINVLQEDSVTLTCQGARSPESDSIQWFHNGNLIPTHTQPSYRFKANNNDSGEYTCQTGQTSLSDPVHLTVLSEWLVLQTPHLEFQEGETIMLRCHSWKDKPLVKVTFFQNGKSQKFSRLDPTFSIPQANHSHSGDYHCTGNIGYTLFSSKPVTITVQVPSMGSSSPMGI
Test: BLI (Octet), biotinylated FcγR on SA sensor, steady state analysis
pKd: −log10 of the molar value.

{"binder": "H137 (Fc fusion, not shown: hinge; copies: 2 + 2) chain (part 1 of 2): QVQLQESGGGSVQAGGSLKLTCAASGYIFNSCGMGWYRQSPGRERELVSRISGDGDTWHKESVKGRFTISQDNVKKTLYLQMNSLKPEDTAVYFCAVCYNLETYWGQGTQVTVSS chain (part 2 of 2): APEAEGAPSVFLFPPKPKDTLMISRTPEVTCVVVDVSHEDPEVKFNWYVDGVEVHNAKTKPREEQYNSTYRVVSVLTVLHQDWLNGKEYKCKVSNKALPSSIEKTISKAKGQPREPQVYTLPPSREEMTKNQVSLTCLVKGFYPSDIAVEWESNGQPENNYKTTPPVLDSDGSFFLYSKLTVDKSRWQQGNVFSCSVMHEALHNQYTQKSLSLSPG", "pKd": 5.92}

All figures here come from patent US20260137822A1.
